Data origin, for the record: PubChem BioAssay (NCI)

# Tested on: T-47D breast
# test protocol: NCI-60 one-dose screen, 48 h
# particulars: 10 µM
Compounds without any hit were thinned out: in the full panel of roughly 83,000, 20% have a hit. Activity calls are given as the source filed them. The calls were made as follows: active = growth percent below 10; inactive = the rest.
Labels: active, inactive

molecule smiles	system name	class
CCc1cc2n(n1)-c1ncc(C(=O)OC)cc1Oc1ccccc1-2	T-47D breast	inactive
CCCCCCCCCCCCCCCCn1cc[n+](C)c1	T-47D breast	active
COc1ccc(-c2cc(/C=C3\C(=O)Nc4cc(Cl)ccc43)[nH]n2)cc1	T-47D breast	inactive

----------
# Tested on: CAKI-1 renal
# test protocol: NCI-60 one-dose screen, 48 h
# particulars: 10 µM
Compounds without any hit were thinned out: in the full panel of roughly 83,000, 20% have a hit. The source made the active and inactive calls. The calls were made as follows: active = growth percent below 10; inactive = the rest.
Labels: yes (1) = active, no (0) = inactive

molecule	class
CCCCCCN=C(N)CCCCCCCCCCC(N)=NCCCCCC	no (0)
Nc1ccc2c(c1)Cc1cc(N)c(Cl)cc1-2	no (0)
CCCCCCCCCCCCCCCCn1cc[n+](C)c1	yes (1)
c1ccc(OCCC[P+](c2ccccc2)(c2ccccc2)c2ccccc2)cc1	no (0)
CCCCC(=O)N(c1ccc(Nc2c3ccccc3nc3cc([N+](=O)[O-])ccc23)cc1)S(C)(=O)=O	no (0)
Cc1cc(C)c2c(Nc3ncnc4c3sc3nc(C)cc(C)c34)n[nH]c2n1	no (0)
COc1ccc(-c2nnc(COc3ccc(NC(=O)Nc4ccccc4)cc3F)o2)cc1	no (0)
COc1cc(C2c3cc4c(cc3C(O)C(CO)C2CO)OCO4)cc(OC)c1OC (stereo not given)	no (0)
COc1cc(NS(C)(=O)=O)ccc1Nc1c2ccc(Cl)cc2nc2c(OC)cccc12	yes (1)
COc1cc(CSc2nc3ccc(C)cc3c(=O)n2-c2ccccc2)cc(OC)c1OC	no (0)

----------
# System: MALME-3M melanoma
# test protocol: NCI-60 one-dose screen, 48 h
# particulars: 10 µM
This is part of a sample that, as a whole, favours compounds with a hit. Of some 83,000 tested, about 20% had one in any assay. Calls of active or inactive are those of the source. Rule for the calls: active = growth percent below 10; inactive = the rest.
Labels: y = active, n = inactive

compound	class
Nc1ccc(C2=CC(c3ccc(Cl)cc3)N3C=CSC3=N2)cc1 (stereo not given)	y
CCN1CCN(c2nc(NNC(=O)c3cccc(OC)c3)nc(N3CCN(C(c4ccccc4)c4ccccc4)CC3)n2)CC1	y
COc1cc(-c2cc(-c3cc(OC)c(OC)c(OC)c3)nc3nc(N)[nH]c(=O)c23)ccc1Oc1ccnc2cc(Cl)ccc12	n
CCN1CCN(c2ccc(Nc3ncnc4c3nnn4CCc3cc(OC)cc(OC)c3)cc2)CC1	n
C=CCOc1ccc2c(c1)CC[C@@H]1[C@@H]2CC[C@]2(C)C(=O)/C(=N/O)C[C@@H]12	n
COc1ccc(-c2cc(/C=C3\C(=O)Nc4cc(Cl)ccc43)[nH]n2)cc1	n
O=c1c2cccc3c(Nc4ccc(Br)cn4)ccc(c32)c2nc3ccccc3n12	n
COc1cc(C(c2c[nH]c3ccccc23)N2CCCC2)ccc1OCc1ccccc1 (stereo not given)	n
CCOC(=O)[C@@H](Cc1ccccc1)NC(=O)c1[nH]c2ccc(Cl)cc2c(=O)c1C	n
COc1ccc(-c2csc(-c3cc(Cl)cc(Cl)c3Cl)n2)cc1	n
COc1cc(Nc2ccnc(N3CCN(c4ccnc5cc(Cl)ccc45)CC3)n2)cc(OC)c1	y
COc1ccc2nc(C)cc(Nc3ccc(Cl)cc3)c2c1	n
C#Cc1ccc(-n2c(/C=C/c3cc(OC)c(OC)c(OC)c3)nc3ncccc3c2=O)cc1	n
CCOC(=O)c1ccc(NC(=O)Nc2nncs2)cc1	n
CNC(=S)Sc1ccc([N+](=O)[O-])cc1[N+](=O)[O-]	n
Cc1cc(C)c(C(=O)OC(C)CNC2CCCCC2)c(C)c1 (stereo not given)	n
COc1ccc(C2C=C(c3ccc(Cl)c(Cl)c3)N=C3SC(C)=CN32)cc1OC (stereo not given)	n
N#Cc1c2c([nH]c(=O)c1C(N)=O)CCCCC2	n
Cc1cc2cc3c(=O)[nH]c(=O)cc-3n(CC(O)C(O)C(O)CO)c2cc1C (stereo not given)	n
CNC(=O)c1cc(Oc2ccc(NC(=O)Nc3ccc(Cl)c(OC(C)C)c3)c(F)c2)ccn1	n
